Test: activity coefficient (dimensionless); of the first substance listed, at infinite dilution; xn = mol fraction of the nth substance listed
Conditions: 313 K; 101.33 kPa; Liquid; Chromatography; x1 = 0
Response key: YES means activity coefficient >= 9; NO means activity coefficient < 9.

>  <COMPOUND>
CC1CCCCC1 [methylcyclohexane] + C[n+]1ccn(CCO)c1.O=S(=O)([O-])C(F)(F)C(F)(F)C(F)(F)C(F)(F)F

>  <CLASS ASSIGNMENT>
YES

$$$$

Q: Record CCCCCCCCC [nonane] + C[n+]1ccn(CCO)c1.O=S(=O)([O-])C(F)(F)C(F)(F)C(F)(F)C(F)(F)F ; criterion: activity coefficient no lower than 9. Met?
Result: YES

Q: Record CCO [ethanol] + C[n+]1ccn(CCO)c1.O=S(=O)([O-])C(F)(F)C(F)(F)C(F)(F)C(F)(F)F ; criterion: activity coefficient no lower than 9. Met?
Result: NO

Q: Record CCCCCC [hexane] + C[n+]1ccn(CCO)c1.O=S(=O)([O-])C(F)(F)C(F)(F)C(F)(F)C(F)(F)F ; criterion: activity coefficient no lower than 9. Met?
Result: YES

Q: Record c1ccccc1 [benzene] + C[n+]1ccn(CCO)c1.O=S(=O)([O-])C(F)(F)C(F)(F)C(F)(F)C(F)(F)F ; criterion: activity coefficient no lower than 9. Met?
Result: NO

Q: Record CCCCC [pentane] + C[n+]1ccn(CCO)c1.O=S(=O)([O-])C(F)(F)C(F)(F)C(F)(F)C(F)(F)F ; criterion: activity coefficient no lower than 9. Met?
Result: NO

Q: Record CO [methanol] + C[n+]1ccn(CCO)c1.O=S(=O)([O-])C(F)(F)C(F)(F)C(F)(F)C(F)(F)F ; criterion: activity coefficient no lower than 9. Met?
Result: NO

Q: Record C1COCCO1 [1,4-dioxane] + C[n+]1ccn(CCO)c1.O=S(=O)([O-])C(F)(F)C(F)(F)C(F)(F)C(F)(F)F ; criterion: activity coefficient no lower than 9. Met?
Result: NO

Q: Record C#CCCCCC [1-heptyne] + C[n+]1ccn(CCO)c1.O=S(=O)([O-])C(F)(F)C(F)(F)C(F)(F)C(F)(F)F ; criterion: activity coefficient no lower than 9. Met?
Result: YES

Q: Record C#CCCCCCC [1-octyne] + C[n+]1ccn(CCO)c1.O=S(=O)([O-])C(F)(F)C(F)(F)C(F)(F)C(F)(F)F ; criterion: activity coefficient no lower than 9. Met?
Result: YES

Q: Record CCc1ccccc1 [ethylbenzene] + C[n+]1ccn(CCO)c1.O=S(=O)([O-])C(F)(F)C(F)(F)C(F)(F)C(F)(F)F ; criterion: activity coefficient no lower than 9. Met?
Result: YES

Q: Record C1CCCCC1 [cyclohexane] + C[n+]1ccn(CCO)c1.O=S(=O)([O-])C(F)(F)C(F)(F)C(F)(F)C(F)(F)F ; criterion: activity coefficient no lower than 9. Met?
Result: YES

Q: Record C=CCCCC [hex-1-ene] + C[n+]1ccn(CCO)c1.O=S(=O)([O-])C(F)(F)C(F)(F)C(F)(F)C(F)(F)F ; criterion: activity coefficient no lower than 9. Met?
Result: YES

Q: Record C=CCCCCCC [oct-1-ene] + C[n+]1ccn(CCO)c1.O=S(=O)([O-])C(F)(F)C(F)(F)C(F)(F)C(F)(F)F ; criterion: activity coefficient no lower than 9. Met?
Result: YES

Hey, just so you know, these numbers are from the NIST ThermoML archive (doi:10.1021/acs.jced.8b00080).
